Test: In vivo chicken acute toxicity (chick embryo, intravenous)
Conditions: chicken (chick embryo), in vivo; chick embryos, intravenous injection, viability 24 h after injection
# maps each entry to its LD50 at 24 h

CCCCCCOC(=O)CCC(=O)CNC(=O)OCOP(=O)(O)O [Compound 7] = 200 µmol/kg

Suppose we examine the molecule CCCCCCOC(=O)CCC(=O)CNP(=O)(O)Oc1ccccc1 [Compound 1] ; what LD50 at 24 h value has been reported?
500 µmol/kg
